The measurements presented in this section are drawn from patent US11358949B2.

Target: LOK/STK10 (Homo sapiens, UniProt O94804)
Sequence (O94804 whole entry): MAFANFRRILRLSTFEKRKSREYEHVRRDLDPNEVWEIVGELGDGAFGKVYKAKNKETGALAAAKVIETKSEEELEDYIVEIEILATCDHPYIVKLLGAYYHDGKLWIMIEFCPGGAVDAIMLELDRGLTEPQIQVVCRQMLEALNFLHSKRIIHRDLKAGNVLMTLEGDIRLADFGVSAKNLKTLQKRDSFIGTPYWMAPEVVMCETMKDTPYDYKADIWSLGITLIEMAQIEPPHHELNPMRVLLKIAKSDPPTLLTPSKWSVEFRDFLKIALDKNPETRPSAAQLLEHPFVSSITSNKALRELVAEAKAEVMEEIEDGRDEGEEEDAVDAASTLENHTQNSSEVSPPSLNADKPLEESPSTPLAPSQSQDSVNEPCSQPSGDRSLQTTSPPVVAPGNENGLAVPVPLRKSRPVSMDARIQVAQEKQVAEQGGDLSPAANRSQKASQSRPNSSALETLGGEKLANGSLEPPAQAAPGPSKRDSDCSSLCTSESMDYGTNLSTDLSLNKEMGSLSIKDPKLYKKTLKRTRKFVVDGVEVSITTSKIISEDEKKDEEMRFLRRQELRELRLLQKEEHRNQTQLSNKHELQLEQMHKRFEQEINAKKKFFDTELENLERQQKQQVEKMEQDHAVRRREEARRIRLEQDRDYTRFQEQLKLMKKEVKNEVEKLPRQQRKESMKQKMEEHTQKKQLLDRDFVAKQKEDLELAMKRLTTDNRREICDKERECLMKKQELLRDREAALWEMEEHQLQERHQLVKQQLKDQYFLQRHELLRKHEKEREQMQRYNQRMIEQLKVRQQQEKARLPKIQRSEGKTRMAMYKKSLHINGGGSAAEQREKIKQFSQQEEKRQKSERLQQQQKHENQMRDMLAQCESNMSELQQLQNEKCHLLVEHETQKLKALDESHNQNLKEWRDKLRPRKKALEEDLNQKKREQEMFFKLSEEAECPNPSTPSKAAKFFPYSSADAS
Assay: HotSpot Kinase Assay, LOK/STK10
Listing: IC50 of selected molecules

COc1cc2c(Oc3ccc(NC(=O)C4(C(=O)Nc5ccc(F)cc5)CC4)cc3)ccnc2cc1OC(=O)N1CCOCC1 [Compound 1-17] :: 100 to 1000 nM

// Input: COc1cc2c(Oc3ccc(NC(=O)C4(C(=O)Nc5ccc(F)cc5)CC4)cc3)ccnc2cc1OC(=O)N1Cc2cn(S(C)(=O)=O)nc2C1 [Compound 1-16] . Output its IC50 only.
> 1000 nM

// Input: COc1cc2c(Oc3ccc(NC(=O)C4(C(=O)Nc5ccc(F)cc5)CC4)cc3)ccnc2cc1OC(=O)N1[C@H](C)CN(C)C[C@@H]1C [Compound 6-3] . Output its IC50 only.
100 to 1000 nM
